tested on: GCaMP5-expressing T. gondii; construct: whole extracellular parasites expressing GCaMP5 Ca2+ sensor; design: species or system GCaMP5-expressing Toxoplasma gondii, extracellular; GCaMP5 fluorescence (cytosolic Ca2+) after 100 uM zaprinast in compound-pretreated extracellular parasites, background-subtracted, relative to zaprinast alone; details: 100 uM zaprinast stimulation; 10 min pretreatment; mean of two replicates; 0.23 h
So basically, if fold change in fluorescence relative to zaprinast alone comes in under 1 it's T, and if it's 1 or more it's F.

Worked set:
[[record]]
compound = "COc1cccc(-n2ncc3c(N/N=C/c4ccc(C(=O)NCCN(C)C)cc4)ncnc32)c1 [GW784307A]"
assigned_category = "T"

[[record]]
compound = "Cc1ccc(C(=O)NC2CC2)cc1-c1ccc2[nH]ncc2c1 [GW820759X]"
assigned_category = "F"

[[record]]
compound = "COc1cc(N2CCN(C(C)C)CC2)ccc1Nc1nc(Nc2cccc(F)c2C(=O)O)c2cc[nH]c2n1 [GSK1819799A]"
assigned_category = "F"

[[record]]
compound = "NC(=O)c1sc(-n2cnc3ccc(C(F)(F)F)cc32)cc1OCc1ccccc1Br [GW853606X]"
assigned_category = "F"


Shifting focus to the compound that follows.
Does this compound meet the criterion fold change in fluorescence relative to zaprinast alone < 1? O=C(NCCNc1ccnc(NCc2ccc(F)cc2)n1)c1cc2ccccc2s1 [GSK1379944A] T

----------
system: GCaMP5-expressing T. gondii; construct: whole extracellular parasites expressing GCaMP5 Ca2+ sensor; design: species or system GCaMP5-expressing Toxoplasma gondii, extracellular; GCaMP5 fluorescence (cytosolic Ca2+) after 100 uM zaprinast in compound-pretreated extracellular parasites, background-subtracted, relative to zaprinast alone; settings: 100 uM zaprinast stimulation; 10 min pretreatment; mean of two replicates; 0.23 h
readout.kind: fold change in fluorescence relative to zaprinast alone
Give the figure only, with no unit attached.

Would you please look over these solved cases?
[[record]]
compound = "O=C(Nc1n[nH]c2nc(-c3ccccc3O)ccc12)C1CC1"
endpoint_value = 1.267

[[record]]
compound = "COc1cc2nccc(Nc3ccc(Oc4ccccc4)cc3)c2cc1OC [GI261656A]"
endpoint_value = 0.5416


Next compound, fold change in fluorescence relative to zaprinast alone to be filled in.
Specify the recorded fold change in fluorescence relative to zaprinast alone for CSc1ccc(-c2nc3n(c2-c2ccncc2)CCC3)cc1 , system: GCaMP5-expressing T. gondii. 0.9692

----------
test system: GCaMP5-expressing T. gondii; construct: whole extracellular parasites expressing GCaMP5 Ca2+ sensor; design: species or system GCaMP5-expressing Toxoplasma gondii, extracellular; GCaMP5 fluorescence (cytosolic Ca2+) after 100 uM zaprinast in compound-pretreated extracellular parasites, background-subtracted, relative to zaprinast alone; conditions: 100 uM zaprinast stimulation; 10 min pretreatment; mean of two replicates; 0.23 h
readout.kind: fold change in fluorescence relative to zaprinast alone
I only need the number, thanks.

Reference set (5 entries):
[[record]]
molecule = "Fc1cc(Cl)ccc1Nc1ccnc2cc(I)ccc12 [GW551191X]"
system_tested = "GCaMP5-expressing T. gondii"
endpoint_value = 1.044

[[record]]
molecule = "COc1ccc(Nc2nccc(N3CCC(NC(=O)c4cc5ccccc5s4)C3)n2)cc1 (stereo not drawn) [GSK1379738A]"
system_tested = "GCaMP5-expressing T. gondii"
endpoint_value = 0.9419

[[record]]
molecule = "Nc1n[nH]c2nnc(-c3ccccc3)c(-c3ccccc3)c12 [GW554060X]"
system_tested = "GCaMP5-expressing T. gondii"
endpoint_value = 1.19

[[record]]
molecule = "COc1ccccc1CNC(=O)c1cc(C(=O)c2ccccc2C)c[nH]1 [GSK364507A]"
system_tested = "GCaMP5-expressing T. gondii"
endpoint_value = 1.353

[[record]]
molecule = "COC(=O)c1cccc(NC(=O)NC2CCN(c3ccnc(NCc4ccc(F)cc4)n3)CC2)c1 [GSK1379860A]"
system_tested = "GCaMP5-expressing T. gondii"
endpoint_value = 0.8716


Give measured fold change in fluorescence relative to zaprinast alone for COc1cccc(NC(=O)NC2CCN(c3ccnc(Nc4ccc(F)cc4)n3)C2)c1 (stereo not drawn) [GSK1379721A] (GCaMP5-expressing T. gondii). 0.358

----------
system: GCaMP5-expressing T. gondii; construct: whole extracellular parasites expressing GCaMP5 Ca2+ sensor; parameters: species or system GCaMP5-expressing Toxoplasma gondii, extracellular; GCaMP5 fluorescence (cytosolic Ca2+) after 100 uM zaprinast in compound-pretreated extracellular parasites, background-subtracted, relative to zaprinast alone; details: 100 uM zaprinast stimulation; 10 min pretreatment; mean of two replicates; 0.23 h
Below, each entry is listed alongside its reported fold change in fluorescence relative to zaprinast alone.
Respond using a number only.

[[record]]
compound = "Cc1ccc(Nc2ccnc(Nc3ccc(C)c(F)c3)n2)cc1O [GW582868A]"
endpoint_value = 1.057


Please look at this compound and report its fold change in fluorescence relative to zaprinast alone: COc1cc(Nc2nccc(N3CCC(NC(=O)c4cccc(C#N)c4)C3)n2)cc(OC)c1OC (stereo not drawn) [GSK1379751A] 1.563

For COc1cc2ncn(-c3cc(OCc4ccccc4C(F)(F)F)c(C(=O)N(C)C)s3)c2cc1OC [GSK1030062A] , write its fold change in fluorescence relative to zaprinast alone. 0.999

Give the value of fold change in fluorescence relative to zaprinast alone reported for the following: COC(=O)Nc1nc2cc(Oc3ccc(NC(=O)Nc4cccc(Br)c4)cc3)ccc2[nH]1 [GW694234A] 0.8976

For the compound Cc1cc(N2Cc3ccccc3C2)nc(Nc2ccc(S(=O)(=O)N3CCOCC3)cc2)n1 [GSK1669917A] , report fold change in fluorescence relative to zaprinast alone. 1.107

Read the entry N#Cc1ccc2c(-c3ccnc(NC4CC4)n3)c(-c3ccc(F)cc3)nn2c1 [GW561436X] and write its reported fold change in fluorescence relative to zaprinast alone. 0.8796

----------
test system: GCaMP5-expressing T. gondii; construct: whole extracellular parasites expressing GCaMP5 Ca2+ sensor; set-up: species or system GCaMP5-expressing Toxoplasma gondii, extracellular; GCaMP5 fluorescence (cytosolic Ca2+) after 100 uM zaprinast in compound-pretreated extracellular parasites, background-subtracted, relative to zaprinast alone; settings: 100 uM zaprinast stimulation; 10 min pretreatment; mean of two replicates; 0.23 h
As shown below, each of these compounds has a reported fold change in fluorescence relative to zaprinast alone value.
Output: the number by itself.

Some solved cases for reference:
[[record]]
compound = "COc1ccc2ncn(-c3cc(O[C@H](C)c4ccccc4C(F)(F)F)c(C(N)=O)s3)c2c1 [GSK317315A]"
endpoint_value = 0.7483

[[record]]
compound = "Fc1ccc(-c2nn3cccc(F)c3c2-c2ccncc2)cc1 [GW475620X]"
endpoint_value = 0.2984

[[record]]
compound = "COc1cccc(COc2cc(-n3cnc4ccccc43)sc2C(N)=O)c1 [GW804482X]"
endpoint_value = 1.105

[[record]]
compound = "CCc1cccc(NC(=O)Nc2ccc(Oc3ccc4nc(NC(=O)OC)[nH]c4c3)cc2)c1 [GW673715X]"
endpoint_value = 1.098

[[record]]
compound = "COc1cccc(-n2ncc3c(N/N=C/c4ccncc4)ncnc32)c1 [GW784752X]"
endpoint_value = 1.109

[[record]]
compound = "Nc1nccc(C#Cc2cncnc2Nc2ccc(OCc3cccc(F)c3)c(Cl)c2)n1 [GW799251X]"
endpoint_value = 1.079

[[record]]
compound = "COc1cc(Nc2ncc3c(C)nc(-c4cc5ccccc5[nH]4)n3n2)cc(OC)c1OC [GW869516X]"
endpoint_value = 0.08874

[[record]]
compound = "CCOC(=O)N1CCC(n2cnc(-c3ccc(F)cc3)c2-c2ccnc(N)n2)CC1"
endpoint_value = 0.8316


Using GCaMP5-expressing T. gondii as the test system, report measured fold change in fluorescence relative to zaprinast alone of O=c1[nH]ccc2nc(N[C@@H]3CCNC3)nc(Nc3ccc4c(c3)S(=O)(=O)CC4)c12 [GSK2181306A] . 1.236

Given CCn1c(-c2nonc2N)nc2c(C#CC(C)(C)O)nc(O[C@@H](CN)c3ccccc3)cc21 [GSK1007102B] , report its fold change in fluorescence relative to zaprinast alone on GCaMP5-expressing T. gondii. 1.188

Fill in: fold change in fluorescence relative to zaprinast alone on GCaMP5-expressing T. gondii, entry Nc1nc(-c2ccccn2)c(-c2ccnc3ccccc23)s1 [GW548057X] 0.7803

State the measured fold change in fluorescence relative to zaprinast alone (GCaMP5-expressing T. gondii) of Cc1ccc2c(-c3ccnc(Nc4ccc(C(F)(F)F)cc4)n3)cnn2n1 [GW819776X] 1.244

Fill in: fold change in fluorescence relative to zaprinast alone on GCaMP5-expressing T. gondii, entry C[C@@H]1CC[C@H](C(=O)NC2CCCCC2)CN1c1cc(-c2ccc3c(N)n[nH]c3c2)nc(N)n1 [GSK2291363A] 1.384

// fetch fold change in fluorescence relative to zaprinast alone; item: Nc1ncc(-c2ccncc2)c2scc(-c3ccc4c(c3)CCN4C(=O)Cc3ccccc3)c12 [GSK2592465A] ; system: GCaMP5-expressing T. gondii 1.243

Provide the reported fold change in fluorescence relative to zaprinast alone (system: GCaMP5-expressing T. gondii) for c1ccc(-c2n[nH]cc2-c2ccnc(-c3ccc(OCCn4ccnc4)cc3)c2)nc1 [GW711782X] 1.163

Give fold change in fluorescence relative to zaprinast alone; test system GCaMP5-expressing T. gondii; compound CN(C)CCNC(=O)Nc1ccc(N(C)c2ccnc(Nc3ccc(CS(C)(=O)=O)cc3)n2)cc1 [GW830900A] 1.233
